Target: DRAK1(h) (Homo sapiens, UniProt Q9UEE5)
Sequence (Q9UEE5 1-414): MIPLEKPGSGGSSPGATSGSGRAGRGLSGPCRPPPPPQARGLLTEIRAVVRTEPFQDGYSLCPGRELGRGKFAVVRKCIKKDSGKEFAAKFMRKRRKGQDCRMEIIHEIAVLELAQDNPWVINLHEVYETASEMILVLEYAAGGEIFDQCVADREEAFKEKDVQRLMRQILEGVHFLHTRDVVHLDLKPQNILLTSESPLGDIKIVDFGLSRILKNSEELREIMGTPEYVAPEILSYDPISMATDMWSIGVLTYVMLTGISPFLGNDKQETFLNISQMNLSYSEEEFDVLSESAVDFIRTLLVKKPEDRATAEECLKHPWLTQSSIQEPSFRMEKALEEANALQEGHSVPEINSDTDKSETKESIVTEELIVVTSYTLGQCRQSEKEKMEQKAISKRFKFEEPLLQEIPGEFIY
Experiment: Kinase Profiling Assay
Assay type: biochemical
Conditions: 100 μM peptide
Below, each entry is listed with its recorded DRAK1(h) % activity.

Some solved entries appear below for comparison.
                            polymersequence                               testtarget  valuereported
0        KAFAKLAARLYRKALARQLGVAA [MMI-0400]  DRAK1(h) (Homo sapiens, UniProt Q9UEE5)            14%
1  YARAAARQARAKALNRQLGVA (Mammalian) [MMI-0200]  DRAK1(h) (Homo sapiens, UniProt Q9UEE5)            34%
2  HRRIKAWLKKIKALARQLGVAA (Mammalian) [MMI-0500]  DRAK1(h) (Homo sapiens, UniProt Q9UEE5)             8%

# next sequence below
Which value of DRAK1(h) % activity has been reported for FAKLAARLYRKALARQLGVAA [MMI-0300] in the records?
14%

* * *

molecular target: MLK1(h) (Homo sapiens, UniProt P80192); test: Kinase Profiling Assay; assay type: biochemical; settings: 100 μM peptide
Sequence (P80192 whole entry): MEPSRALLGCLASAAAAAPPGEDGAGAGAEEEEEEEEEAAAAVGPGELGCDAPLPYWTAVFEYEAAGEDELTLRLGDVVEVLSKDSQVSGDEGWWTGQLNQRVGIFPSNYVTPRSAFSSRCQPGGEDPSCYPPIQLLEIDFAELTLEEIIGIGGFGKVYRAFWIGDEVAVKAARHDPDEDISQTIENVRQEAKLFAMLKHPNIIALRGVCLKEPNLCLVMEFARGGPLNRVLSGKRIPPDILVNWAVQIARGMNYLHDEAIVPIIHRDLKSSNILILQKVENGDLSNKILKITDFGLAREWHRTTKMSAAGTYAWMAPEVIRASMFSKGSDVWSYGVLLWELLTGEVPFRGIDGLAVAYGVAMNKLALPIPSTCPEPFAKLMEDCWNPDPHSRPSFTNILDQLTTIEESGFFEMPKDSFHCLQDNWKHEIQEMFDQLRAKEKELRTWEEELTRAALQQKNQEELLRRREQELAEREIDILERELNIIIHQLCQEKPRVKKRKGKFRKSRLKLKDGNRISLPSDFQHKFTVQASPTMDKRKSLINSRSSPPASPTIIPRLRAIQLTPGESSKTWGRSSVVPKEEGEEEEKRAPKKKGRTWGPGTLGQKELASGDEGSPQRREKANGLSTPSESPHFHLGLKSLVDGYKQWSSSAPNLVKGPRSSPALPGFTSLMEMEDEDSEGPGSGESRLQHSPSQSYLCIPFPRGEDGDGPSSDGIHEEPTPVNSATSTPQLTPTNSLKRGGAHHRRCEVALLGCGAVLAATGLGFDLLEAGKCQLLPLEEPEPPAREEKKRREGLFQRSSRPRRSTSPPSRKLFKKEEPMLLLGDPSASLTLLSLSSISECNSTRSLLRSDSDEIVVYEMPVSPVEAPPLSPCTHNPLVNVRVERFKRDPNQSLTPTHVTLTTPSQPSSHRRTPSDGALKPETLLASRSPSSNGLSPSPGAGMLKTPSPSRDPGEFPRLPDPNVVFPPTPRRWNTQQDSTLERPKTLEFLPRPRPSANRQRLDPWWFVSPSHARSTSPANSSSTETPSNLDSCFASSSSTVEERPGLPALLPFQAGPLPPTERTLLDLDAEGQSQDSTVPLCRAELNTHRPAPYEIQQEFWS
propertyName: MLK1(h) % activity (%)
# unit: % | format: bare number

Some solved entries appear below for comparison.
In [3]: df
Out[3]:
                            polymersequence  unitspec  valuereported
0  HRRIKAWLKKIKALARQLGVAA (Mammalian) [MMI-0500]         %             43
1        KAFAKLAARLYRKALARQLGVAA [MMI-0400]         %             33
2          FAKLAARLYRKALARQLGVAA [MMI-0300]         %             40

Which value of MLK1(h) % activity has been reported for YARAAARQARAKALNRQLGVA (Mammalian) [MMI-0200] in the records?
84

* * *

Below, each entry is listed with its recorded PhKγ2(h) % activity.
Molecular target: PhKγ2(h) (Homo sapiens)
Sequence (P15735 1-406): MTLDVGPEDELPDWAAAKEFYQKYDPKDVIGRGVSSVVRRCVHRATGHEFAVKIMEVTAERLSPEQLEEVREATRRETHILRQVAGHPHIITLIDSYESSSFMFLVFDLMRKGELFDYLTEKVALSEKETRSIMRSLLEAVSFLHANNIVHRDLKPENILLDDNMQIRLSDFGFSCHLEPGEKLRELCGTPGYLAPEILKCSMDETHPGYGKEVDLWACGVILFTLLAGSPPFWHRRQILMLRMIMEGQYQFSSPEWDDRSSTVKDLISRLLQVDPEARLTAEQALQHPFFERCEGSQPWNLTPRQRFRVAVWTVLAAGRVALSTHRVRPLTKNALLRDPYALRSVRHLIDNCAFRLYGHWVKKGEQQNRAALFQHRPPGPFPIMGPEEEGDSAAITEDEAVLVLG
Assay: Kinase Profiling Assay
Format: biochemical
Settings: 100 μM peptide
# unit: % | format: bare number

Some solved entries appear below for comparison.
                            polymersequence         propertyname  valuereported
0          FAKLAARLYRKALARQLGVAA [MMI-0300]  PhKγ2(h) % activity             46
1  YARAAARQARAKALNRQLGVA (Mammalian) [MMI-0200]  PhKγ2(h) % activity             86

# next sequence below
API: value(readout= PhKγ2(h) % activity, system= PhKγ2(h) (Homo sapiens), query= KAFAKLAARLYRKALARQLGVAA [MMI-0400] )
38
